FYI, the data here is from the RNAGym collection of RNA variant scans (doi:10.1101/gr.219683.116).

B1: mRNA-splicing (parent)
chain: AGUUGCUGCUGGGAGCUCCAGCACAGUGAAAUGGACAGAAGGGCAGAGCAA

Variants of: B1
Protocol details: exon inclusion enrichment index; higher = more inclusion; WT1 exon 5 minigene, HEK293
Parameter measured: exon inclusion enrichment index

mutant_designation="G5U G8U C9U A14U G15A" recorded_measurement=0.00362
mutant_designation="G5C C6U G8C C9U U10C A39U A40G" recorded_measurement=0.572
mutant_designation="G5C C6G U7C U10C U17G" recorded_measurement=1.86
mutant_designation="G5A U7C G8A U10C A25U G26U" recorded_measurement=1.75
mutant_designation="G5C C6U G8A C9U U10C" recorded_measurement=0.941
mutant_designation="G5U G8U C9U G15A C16G" recorded_measurement=0.043
mutant_designation=G34U recorded_measurement=0.0244
mutant_designation="C6A U7A C9A U10A G26A" recorded_measurement=1.08
mutant_designation="G5C C6G U7C U10C G26A U27C" recorded_measurement=4.94
mutant_designation="C6A U7A C9A U10A G34U A35C" recorded_measurement=0.203
mutant_designation="G2A U3G G5C C6A U7C G8A U10A" recorded_measurement=0.0866
mutant_designation="G5C C6U G8C C9U U10A" recorded_measurement=0.186
mutant_designation="U10G G11U" recorded_measurement=2.4
mutant_designation="G5C C6G U7C U10C A40U G41U" recorded_measurement=2.15
mutant_designation="G5U G8U C9U C19U A20G" recorded_measurement=0.0101
mutant_designation="G5C C6A U7C G8A U10A U32C G33C" recorded_measurement=0.153
mutant_designation="G5A C6A C9A" recorded_measurement=0.239
mutant_designation="G5C C6G U7C U10C U17C C18A" recorded_measurement=3.59
mutant_designation="C6A U7A C9A U10A A47G G48C" recorded_measurement=0.251
mutant_designation=G26U recorded_measurement=0.137
mutant_designation="G5C C6G U7C U10C G33C G34U" recorded_measurement=2.86
mutant_designation="G5A U7C G8A U10C A14C G15U" recorded_measurement=1
